target: ZmCKX1 (Zea mays)
Construct: made in house; host or cells: Yarrowia lipolytica
Sequence (Q9T0N8 19-534): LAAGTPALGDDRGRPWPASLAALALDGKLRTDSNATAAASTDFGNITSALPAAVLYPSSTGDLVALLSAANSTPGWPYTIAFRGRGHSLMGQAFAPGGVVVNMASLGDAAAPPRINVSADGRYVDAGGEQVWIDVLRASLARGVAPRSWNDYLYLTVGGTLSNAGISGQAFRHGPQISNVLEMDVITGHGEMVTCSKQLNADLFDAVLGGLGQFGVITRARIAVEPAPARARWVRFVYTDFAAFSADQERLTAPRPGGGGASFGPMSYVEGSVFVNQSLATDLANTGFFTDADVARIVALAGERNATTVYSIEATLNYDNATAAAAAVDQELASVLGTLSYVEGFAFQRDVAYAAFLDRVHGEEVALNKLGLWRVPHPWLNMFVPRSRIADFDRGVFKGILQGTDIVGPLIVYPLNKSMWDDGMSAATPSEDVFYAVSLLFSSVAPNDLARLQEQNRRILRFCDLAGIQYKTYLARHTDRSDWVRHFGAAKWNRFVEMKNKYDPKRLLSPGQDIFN
test-method-notes: ZmCKX1 inhibition, PMS/MTT assay
Format: biochemical, maize
pIC50: −log10 of the molar value.
// label = 1 (yes) if pIC50 is not less than 8, otherwise 0 (no)

These solved cases illustrate the format of a correct answer.
> print(dat)
                                   molecule             target      cat
1  NC(=O)c1ccccc1NC(=O)Nc1cc(Br)cc(Br)c1 [compound 7, 2-[3-(3,5-dibromophenyl)ureido]benzamide]  ZmCKX1 (Zea mays)   0 (no)
2  CCNC(=O)c1ccc(Br)cc1NC(=O)Nc1cc(Cl)cc(Cl)c1  ZmCKX1 (Zea mays)  1 (yes)
3  NNC(=O)c1ccc(Br)cc1NC(=O)Nc1cc(Cl)cc(Cl)c1  ZmCKX1 (Zea mays)   0 (no)
4     NC(=O)c1ccccc1NC(=O)Nc1cc(Cl)cc(Br)c1  ZmCKX1 (Zea mays)   0 (no)
5  O=C(Nc1cc(Cl)cc(Cl)c1)Nc1cc(Br)ccc1C(=O)NCCO  ZmCKX1 (Zea mays)  1 (yes)
6  O=C(Nc1ccccc1)Nc1ccnc(Cl)c1 [CPPU, 1-(2-chloro-4-pyridyl)-3-phenylurea, reference compound]  ZmCKX1 (Zea mays)   0 (no)

Next up:
Input: Please check the record NC(=O)c1ccc(F)cc1NC(=O)Nc1cccc(Cl)c1 and state if its pIC50 is at or above 8.
Output: 0 (no)
